system: Vesicular stomatitis virus; experiment: microbe, parasite or virus in culture; assay type: cell-based; details: Vesicular stomatitis virus, HeLa, read-out: EC50 (required to reduce virus-induced cytopathogenicity by 50%) Vesicular stomatitis virus
Let's look at some molecules and their measured EC50.

{"columns": ["molecule", "EC50"],
 "data": [
  ["Nc1nc2c(ncn2COCCO)c(=O)[nH]1 [Acyclovir]", "> 250 µM"],
  ["O=c1[nH]c(=O)n([C@H]2C[C@H](O)[C@@H](CO)O2)cc1/C=C/Br [Brivudin]", "> 250 µM"],
  ["Nc1ccn(C[C@@H](CO)OCP(=O)(O)O)c(=O)n1 [Cidofovir]", "> 250 µM"],
  ["Nc1nc(O)c2ncn(COC(CO)CO)c2n1 [Ganciclovir]", "> 100 µM"]
]}

// provenance: patent US10138261B2
